- ASSAY NAME: Phase 1/2 study: plasma pharmacokinetics of Compound (I) in patients (LC-MS/MS, non-compartmental analysis)
- Assay type: in vivo, human
- EXPERIMENTAL CONTEXT: human, plasma, oral, 400 mg BID, 400 mg BID with 200 mg run-in, Cycle 1 Day 22, mean ± SD, n = 24; read-out: Cmax

[
  {
    "SMILES RECORD": "CC1(N)CCN(c2cccnc2NC(=O)c2nc(-c3ncccc3C(F)(F)F)cnc2N)CC1",
    "Cmax [ng/mL]": 3580
  }
]

---

- ASSAY NAME: Phase 1/2 study: plasma pharmacokinetics of Compound (I) in patients (LC-MS/MS, non-compartmental analysis)
- Type: in vivo, human
- EXPERIMENTAL CONTEXT: human, plasma, oral, 300 mg, 300 mg BID, Cycle 1 Day 1, mean ± SD, n = 12; read-out: AUC0-12

[
  {
    "COMPOUND": "CC1(N)CCN(c2cccnc2NC(=O)c2nc(-c3ncccc3C(F)(F)F)cnc2N)CC1 [Compound (I)]",
    "AUC(0-t) / ng·h/mL": 26200
  }
]

---

- ASSAY NAME: Phase 1/2 study: plasma pharmacokinetics of Compound (I) in patients (LC-MS/MS, non-compartmental analysis)
- Assay type: in vivo, human
- EXPERIMENTAL CONTEXT: human, plasma, oral, 300 mg, 300 mg BID, Cycle 1 Day 15, mean ± SD, n = 12; read-out: AUC0-12

[
  {
    "MOLECULE": "CC1(N)CCN(c2cccnc2NC(=O)c2nc(-c3ncccc3C(F)(F)F)cnc2N)CC1 [Compound (I)]",
    "READOUT UNIT": "ng·h/mL",
    "AUC(0-t)": 16800
  }
]

---

- ASSAY NAME: Phase 1/2 study: plasma pharmacokinetics of Compound (I) in patients (LC-MS/MS, non-compartmental analysis)
- Format: in vivo, human
- EXPERIMENTAL CONTEXT: human, plasma, oral, 300 mg, individual patient 10001-00022, 300 mg BID, C1 Day 1 (footnote a: AUC0-8); read-out: AUC0-8

[
  {
    "SMILES RECORD": "CC1(N)CCN(c2cccnc2NC(=O)c2nc(-c3ncccc3C(F)(F)F)cnc2N)CC1",
    "AUC(0-t), ng·h/mL": 35900
  }
]

---

- ASSAY NAME: Phase 1/2 study: plasma pharmacokinetics of Compound (I) in patients (LC-MS/MS, non-compartmental analysis)
- Type: in vivo, human
- EXPERIMENTAL CONTEXT: human, plasma, oral, 400 mg BID, 400 mg BID with 200 mg run-in, Cycle 1 Day 8, mean ± SD, n = 24; read-out: Cmax
- Protocol: The following example presents a phase 1/2 study of Compound (I) in patients with solid tumors harboring GNAQ/11 mutations or PRKC fusions. Patients with MUM were sequentially enrolled into Cohort 1 or Cohort 2. Enrollment into Cohort 2 was not initiated until enrollment into Cohort 1 was completed and the dose considered safe. • a. Cohort 1. […] The Pharmacokinetic parameters were calculated using Phoenix WinNonlin software (non-compartmental analysis).
OBSERVABLE: Cmax

[
  {
    "COMPOUND": "CC1(N)CCN(c2cccnc2NC(=O)c2nc(-c3ncccc3C(F)(F)F)cnc2N)CC1 [Compound (I)]",
    "ENDPOINT RESULT": "3930 ng/mL"
  }
]
